molecular target: T1, CD33 (immobilized on CM5 sensor chip) (UniProt P20138 18-259, limits assumed); assay: SPR (Biacore T-200), CD33 immobilized on CM5 chip
T1 construct: also called CD33 antigen
T1 sequence (P20138 18-259 limits assumed): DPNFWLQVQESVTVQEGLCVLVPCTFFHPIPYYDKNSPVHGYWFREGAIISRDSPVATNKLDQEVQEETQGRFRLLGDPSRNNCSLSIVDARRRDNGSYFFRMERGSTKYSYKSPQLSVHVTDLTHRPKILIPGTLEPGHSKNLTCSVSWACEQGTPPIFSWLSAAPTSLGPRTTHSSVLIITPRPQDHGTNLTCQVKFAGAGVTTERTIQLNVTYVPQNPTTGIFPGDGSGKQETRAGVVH
Can you tell me kon for the items I'm about to list?
Report the value in M⁻¹ s⁻¹ with no unit label.

Exercise: Please report kon for the following binder: humanized HIM34 BsAb L4H7 (bispecific antibody, human IgG1, V domains shown, Tested as a humanized HIM34×CD3 BsAb in the IgG-scFv format (human IgG1 N297A/K322A, humanized OKT3 scFv on the light chain)) VH: QVQLQQSGAEVKKPGASVKVSCKASGYSFTDYNMYWVRQAPGQGLEWIGYIDPYKGGTIYNQKFKGRATLTRDTSISTAYMELSRLRSDDTAVYYCAREMITAYYFDYWGQGSSVTVSS VL: DIQMTQSPSSLSASVGDRVTITCKASQDINKYIAWYQHKPGKAPKLLIYYASNLQPGVPSRFSGSGSGRDFTFTISSLQPEDIATYYCLQYDNLLTFGAGTKLELK
Solution: 861000

Exercise: Recall and state the measured kon for humanized HIM34 BsAb L4H1 (bispecific antibody, human IgG1, V domains shown, Tested as a humanized HIM34×CD3 BsAb in the IgG-scFv format (human IgG1 N297A/K322A, humanized OKT3 scFv on the light chain)) VH: QVQLQQSGAEVVKPGASVKVSCKASGYSFTDYNMYWVRQAPGQGLEWIGYIDPYKGGTNYAQKFQGRVTMTVDKSSSTAYMELSRLRSDDTAVYYCAREMITAYYFDYWGQGSSVTVSS VL: DIQMTQSPSSLSASVGDRVTITCKASQDINKYIAWYQHKPGKAPKLLIYYASNLQPGVPSRFSGSGSGRDFTFTISSLQPEDIATYYCLQYDNLLTFGAGTKLELK .
Solution: 4.95e+06

Exercise: Identify kon associated with the binder humanized HIM34 BsAb L3H4 (bispecific antibody, human IgG1, V domains shown, Tested as a humanized HIM34×CD3 BsAb in the IgG-scFv format: human IgG1 with N297A/K322A, humanized OKT3 scFv on the light chain C-terminus via (G4S)3) VH: QVQLVQSGAEVKKPGASVKVSCKASGYSFTDYNMYWVRQAPGQGLEWIGYIDPYKGGTNYAQKFQGRATLTVDKSSSTAYMELSRLRSDDTAVYYCAREMITAYYFDYWGQGSSVTVSS VL: DIQMTQSPSSLSASVGDRVTITCKASQDINKYIAWYQHKPGKAPKLLIHYTSTLETGVPSRFSGSGSGTDFTFTISSLQPEDIATYYCLQYDNLLTFGAGTKLELK
Solution: 1.84e+06

Exercise: Hello, please tell me recorded kon for this one: humanized HIM34 BsAb L4H4 (bispecific antibody, human IgG1, V domains shown, Tested as a humanized HIM34×CD3 BsAb in the IgG-scFv format (human IgG1 N297A/K322A, humanized OKT3 scFv on the light chain)) VH: QVQLVQSGAEVKKPGASVKVSCKASGYSFTDYNMYWVRQAPGQGLEWIGYIDPYKGGTNYAQKFQGRATLTVDKSSSTAYMELSRLRSDDTAVYYCAREMITAYYFDYWGQGSSVTVSS VL: DIQMTQSPSSLSASVGDRVTITCKASQDINKYIAWYQHKPGKAPKLLIYYASNLQPGVPSRFSGSGSGRDFTFTISSLQPEDIATYYCLQYDNLLTFGAGTKLELK
Solution: 4.5e+06
